Biological target: T1, human IL13 (human, UniProt P35225 35-146, biotinylated in the SPR assays (sites not given))
T1 construct: Peprotech; also called hIL13; recombinant human IL13
T1 sequence (P35225 other isoform, or with tags, fused parts or gaps limits assumed): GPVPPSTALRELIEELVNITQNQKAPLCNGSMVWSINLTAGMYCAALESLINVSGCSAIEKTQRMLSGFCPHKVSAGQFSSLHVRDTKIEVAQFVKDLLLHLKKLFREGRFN
Assay: SPR BIAcore, biotin-IL13 on SA chip, global fit
recordedMetric: pKd
Keep in mind that pKd stands for -log10 of concentration in molar terms.

Bench note: what pKd did 5H7 (designed binder, N-Cap-(AR)3-C-Cap) DLGKKLLEAARAGQDDEVRILMANGADVNAADMYGTTPQHLAARTGHLEIVEVLLKYGADVNAADFLGDTPLHLAAYHGHLEIVEVLLKHGADVNASDITGETPLHLAAHLGHLEIVEVLLKYGADVNAQDKFGKTAFDISIDNGNEDLAEILQKLN show? 9.58

FYI, the data here is from patent US20120277143A1.
